The measurements presented in this section are drawn from patent US20250101041A1.

- measurementTarget: human mAChR M4 (Homo sapiens, UniProt P08173)
- Sequence (P08173 1-479): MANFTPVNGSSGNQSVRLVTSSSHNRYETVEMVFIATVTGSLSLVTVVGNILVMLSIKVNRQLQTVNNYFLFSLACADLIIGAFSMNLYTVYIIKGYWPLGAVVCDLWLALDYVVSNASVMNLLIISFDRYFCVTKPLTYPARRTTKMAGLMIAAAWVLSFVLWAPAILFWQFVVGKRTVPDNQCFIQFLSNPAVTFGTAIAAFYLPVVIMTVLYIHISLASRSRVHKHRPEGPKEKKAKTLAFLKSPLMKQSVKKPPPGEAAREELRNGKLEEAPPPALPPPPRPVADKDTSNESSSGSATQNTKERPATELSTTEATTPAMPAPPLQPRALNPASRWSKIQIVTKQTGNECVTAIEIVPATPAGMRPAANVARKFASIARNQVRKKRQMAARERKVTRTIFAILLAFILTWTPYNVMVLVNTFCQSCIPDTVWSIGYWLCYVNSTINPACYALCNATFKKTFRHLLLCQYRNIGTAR
- assayMethodText: mAChR M4 cell-based functional assay: calcium mobilization (Fluo-4, FDSS), potentiation of EC20 acetylcholine response in hM4-Gqi5 CHO-K1 cells
- statedConditions: potentiation of EC20 acetylcholine response, calcium mobilization, human M4
metricName: log10 of EC50 (log10 of the value in µM)
A value of 2 here means EC50 of 100 in µM, since values are log10.

# example entries with known answers
# compound, measurementTarget, metricName, reportedValue
records = [
    ("Cc1ccc(-c2cnc3c(c2)CN(c2nn4c(=O)ccnc4c(C)c2C)CC3)cn1", "human mAChR M4 (Homo sapiens, UniProt P08173)", "log10 of EC50", -1.15),
    ("Cc1cc2nccc(=O)n2nc1N1CCc2ncc(NS(C)(=O)=O)cc2C1", "human mAChR M4 (Homo sapiens, UniProt P08173)", "log10 of EC50", 0.44),
    ("COCc1cc(=O)n2nc(N3CCc4ncc(-c5ccc(F)c(F)c5)cc4C3)c(C)cc2n1", "human mAChR M4 (Homo sapiens, UniProt P08173)", "log10 of EC50", -0.32),
    ("Cc1cc2nccc(=O)n2nc1N1CCc2ncc(-c3cncc(C(C)(C)O)c3)cc2C1", "human mAChR M4 (Homo sapiens, UniProt P08173)", "log10 of EC50", 0.05),
    ("CCc1ccccc1-c1cnc2c(c1)CN(c1nn3c(=O)cc(C)nc3cc1C)CC2", "human mAChR M4 (Homo sapiens, UniProt P08173)", "log10 of EC50", -0.36),
]

Complete the entry with log10 of EC50 for COCc1cc(=O)n2nc(N3Cc4cc(C(F)(F)F)cnc4C(C)C3)c(C)c(C)c2n1 (single isomer, unassigned) [Compound 1-377]
-0.44

Fill in log10 of EC50 for record Cc1cc2nccc(=O)n2nc1N1CCc2ncc(Nc3cncc(Cl)c3)cc2C1
-0.74

Report measured log10 of EC50; entry is Cc1cc(=O)n2nc(N3CCc4ncc(N5CCOC(C)(C)C5)cc4C3)c(C)c(C)c2n1
-0.91
